system: Enterococcus faecalis; experiment: Antibacterial activity against Enterococcus faecalis ATCC 29212 after 20 hrs by broth microdilution method; format: functional; settings: ATCC 29212, 20 h
Reported MIC is given for each of the following molecules.

[
  {
    "MOLECULE": "C[C@H](O)[C@]1(NC(=O)N(C)C)[C@@H](N)[C@H](Nc2ccccc2)[C@](O)(CO)[C@]1(C)O",
    "QUALIFIER": ">",
    "MIC (µg/mL)": 128
  },
  {
    "MOLECULE": "CC(=O)c1cccc(N[C@H]2[C@H](N)[C@@](NC(=O)N3CCCCC3)([C@H](C)O)[C@@](C)(O)[C@@]2(O)CO)c1",
    "QUALIFIER": ">",
    "MIC (µg/mL)": 128
  },
  {
    "MOLECULE": "COc1cccc(N[C@H]2[C@H](N)[C@@](NC(=O)N(C)C)([C@H](C)O)[C@@](C)(O)[C@@]2(O)CO)c1",
    "QUALIFIER": ">",
    "MIC (µg/mL)": 128
  },
  {
    "MOLECULE": "C[C@H](O)[C@]1(NC(=O)N(C)C)[C@@H](N)[C@H](Nc2cccc(F)c2)[C@](O)(CO)[C@]1(C)O",
    "QUALIFIER": "=",
    "MIC (µg/mL)": 128
  },
  {
    "MOLECULE": "CC(=O)c1cccc(N[C@H]2[C@H](N)[C@@](NC(=O)N(C)C)([C@H](C)O)[C@@](C)(O)[C@@]2(O)COC(=O)c2c(C)cccc2O)c1",
    "QUALIFIER": "=",
    "MIC (µg/mL)": 128
  },
  {
    "MOLECULE": "CC(=O)c1cccc(N[C@H]2[C@H](N)[C@]3(NC(=O)O[C@H]3C)[C@@](C)(O)[C@@]2(O)COC(=O)c2c(C)cccc2O)c1 [PACTAMYCATE]",
    "QUALIFIER": ">",
    "MIC (µg/mL)": 128
  },
  {
    "MOLECULE": "CC(=O)c1cccc(N[C@H]2[C@H](N)[C@@](NC(=O)N(C)C)([C@H](C)O)[C@@](C)(O)[C@@]2(O)CO)c1",
    "QUALIFIER": "=",
    "MIC (µg/mL)": 64
  }
]
